Assay: qHTS RealTime-Glo MT Cell Viability Assay in HEK293 cells - 40 hour (AID 1224874); also: % is scaled to controls: 0 for no effect and ±100 for the full control effect; nearly all actives have a fitted effect of over 50% in size
Settings: RealTime-Glo luminescence; hits give low values
Results filed as inconclusive are left out.
RECORDED METRIC: max response (%)
Answers are plain numbers, in %.

Worked examples, 3 molecules total:
- MOLECULE: "C=CC(=C)CCCC(C)(C)OC(C)=O"
  RESULT UNITS: "%"
  max response: -7.82
- MOLECULE: "C[Si](NC1CCCCC1)(NC1CCCCC1)NC1CCCCC1"
  RESULT UNITS: "%"
  max response: -24.6
- MOLECULE: "C[C@]12CCC(=O)C=C1C=C[C@@H]1[C@@H]2CC[C@@]2(C)[C@H]1CC[C@@]21CCC(=O)O1"
  RESULT UNITS: "%"
  max response: -25.7

Hey, quick one: what's max response for each of these?
1. CC(C)CCCCCOC(=O)CCCCC(=O)OCCCCCC(C)C
2. C[N+]1(C)CCC(=C(c2ccccc2)c2ccccc2)CC1
3. Cc1cc(C(=C2C=CC(=Nc3ccc(S(=O)(=O)O)cc3S(=O)(=O)O)C=C2)c2ccc(Nc3ccc(S(=O)(=O)O)cc3)cc2)ccc1N
4. Cc1cc(O)c2c(O)c3c(O)cccc3cc2c1

Reply:
[3.71, 7.64, -3.61, -16.2]

State recorded max response for all listed molecules.
1. Nc1ccc(S(=O)(=O)O)cc1
2. CC(=O)Nc1ccccc1C
3. CC(CCc1ccc2c(c1)OCO2)NN (stereo unspecified)
4. Cc1cnc(C)c(C)n1

Reply:
0.165
1.18
6.86
-11.2

###

Biological target: Peroxisome proliferator-activated receptor gamma (Homo sapiens) (UniProt P37231)
Sequence (P37231 whole entry, looked up): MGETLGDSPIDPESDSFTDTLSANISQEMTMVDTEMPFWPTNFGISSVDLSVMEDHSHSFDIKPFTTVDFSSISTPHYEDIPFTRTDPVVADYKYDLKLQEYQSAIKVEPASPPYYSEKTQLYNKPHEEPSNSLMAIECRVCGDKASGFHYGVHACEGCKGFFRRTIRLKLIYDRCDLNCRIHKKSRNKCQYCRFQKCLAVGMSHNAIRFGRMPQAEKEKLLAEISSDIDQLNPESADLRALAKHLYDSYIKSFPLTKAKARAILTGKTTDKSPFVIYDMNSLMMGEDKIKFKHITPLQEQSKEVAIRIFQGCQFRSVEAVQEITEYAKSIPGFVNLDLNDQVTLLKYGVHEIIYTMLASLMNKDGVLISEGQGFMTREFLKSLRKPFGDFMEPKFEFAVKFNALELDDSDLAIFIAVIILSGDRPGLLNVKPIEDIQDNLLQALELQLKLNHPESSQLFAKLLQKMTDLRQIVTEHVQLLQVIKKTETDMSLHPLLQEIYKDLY
Test: qHTS assay to identify small molecule antagonists of the peroxisome proliferator-activated receptor gamma (PPARg) signaling pathway (AID 743191); also: nearly all actives have a fitted effect of over 30% in size
Details: HEK293H PPARg-UAS-bla, beta-lactamase ratio, antagonist, 17 h; series mostly up to 62.6 µM
Inconclusive results are not listed. The source made the active and inactive calls. The call rests on the fitted dose curve.
// one of yes (1) = active, no (0) = inactive, no free text

Consider the following illustrative entries.
- COMPOUND: "COC(=O)c1cc(Cl)ccc1NS(=O)(=O)C(F)(F)F"
  CAT: "no (0)"
- COMPOUND: "Cc1ccnc2ccccc12"
  CAT: "no (0)"

Task item: Per the assay record, what outcome was assigned to CCCCCCCCSCCO ?
Reply: no (0)

Task item: For CCCOCCOCCO , what call appears in the results of this test?
Reply: no (0)

Task item: GET /call?item= Cc1oc(C)c(C(=O)Nc2ccccc2)c1C returns the recorded outcome of this test.
Reply: yes (1)

Task item: Answer briefly: the call reported for COC(=O)CC(=O)C(C)(C)C in this assay.
Reply: no (0)

Task item: For CC1=C(C=O)C(C)(C)CCC1 , which call appears in the assay record?
Reply: no (0)

###

Molecular target: Androgen receptor (Homo sapiens) (UniProt P10275)
Sequence (P10275 whole entry, looked up): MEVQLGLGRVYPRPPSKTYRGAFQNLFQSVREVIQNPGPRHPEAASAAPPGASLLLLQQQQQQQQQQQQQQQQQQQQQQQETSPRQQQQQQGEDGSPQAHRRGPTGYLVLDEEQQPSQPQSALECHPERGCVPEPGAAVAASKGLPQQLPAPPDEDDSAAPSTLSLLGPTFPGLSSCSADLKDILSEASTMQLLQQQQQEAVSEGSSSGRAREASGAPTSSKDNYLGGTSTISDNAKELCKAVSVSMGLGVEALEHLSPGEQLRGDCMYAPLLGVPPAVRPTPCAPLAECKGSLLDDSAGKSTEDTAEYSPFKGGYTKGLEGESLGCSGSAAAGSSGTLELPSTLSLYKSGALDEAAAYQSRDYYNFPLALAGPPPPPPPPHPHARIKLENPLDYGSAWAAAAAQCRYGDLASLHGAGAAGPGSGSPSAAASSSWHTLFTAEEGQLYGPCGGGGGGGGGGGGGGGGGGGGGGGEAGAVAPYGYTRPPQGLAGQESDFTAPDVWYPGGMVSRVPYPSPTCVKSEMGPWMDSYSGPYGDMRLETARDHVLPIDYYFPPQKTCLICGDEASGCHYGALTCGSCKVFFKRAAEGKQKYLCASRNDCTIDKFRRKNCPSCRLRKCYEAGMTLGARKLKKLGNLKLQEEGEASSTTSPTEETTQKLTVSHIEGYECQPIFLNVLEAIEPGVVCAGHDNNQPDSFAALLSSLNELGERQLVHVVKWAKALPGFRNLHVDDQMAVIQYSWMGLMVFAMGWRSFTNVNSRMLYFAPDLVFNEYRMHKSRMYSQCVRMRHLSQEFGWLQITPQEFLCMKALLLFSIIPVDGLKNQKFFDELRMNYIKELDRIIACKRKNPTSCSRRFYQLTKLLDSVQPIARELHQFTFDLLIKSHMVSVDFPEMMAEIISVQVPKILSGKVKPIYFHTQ
Assay: qHTS assay to identify small molecule agonists of the androgen receptor (AR) signaling pathway in the presence of an antagonist (AID 1259381); also: nearly all actives have a fitted effect of over 15% in size
Conditions: MDA-kb2 MMTV-luciferase, AR agonist + nilutamide, 16 h; series mostly up to 42.5 µM
Description: National Center for Advancing Translational Sciences [NCATS] NIH Chemical Genomics Center [NCGC] U.S. Environmental Protection Agency [EPA] National Institutes of Environmental Health Sciences [NIEHS] National Toxicology Program [NTP] Assay overview: Androgen receptor (AR) is an important member of nuclear receptor family. Its signaling plays a critical role in AR-dependent prostate cancer and other androgen related diseases. […]
Calls of active or inactive are those of the source. Calls follow the shape of the full dose curve.
Valid outcomes are listed here; reply with one: active, inactive

Known results for compounds:
- COMPOUND: "CCCC(=O)O[C@]1(C(=O)COC(=O)CC)CC[C@H]2[C@@H]3CCC4=CC(=O)CC[C@]4(C)[C@H]3[C@@H](O)C[C@@]21C"
  CAT: "active"
- COMPOUND: "CCOCCn1c(C2CCN(CCc3ccc(C(C)(C)C(=O)O)cc3)CC2)nc2ccccc21"
  CAT: "inactive"
- COMPOUND: "COc1cc2c(cc1OC)-c1cc(=Nc3c(C)cc(C)cc3C)n(C)c(=O)n1CC2"
  CAT: "inactive"
- COMPOUND: "C[N+](C)(C)CCOC(N)=O"
  CAT: "inactive"
- COMPOUND: "Nc1c(I)cc(I)c(C(=O)N(CCC(=O)O)c2ccccc2)c1I"
  CAT: "inactive"

Task item: Hi team, can someone confirm the assay call for Oc1ccc(Nc2ccccc2)cc1 ?
Reply: inactive

Task item: Please share the test call associated with ON(Cc1ccccc1)Cc1ccccc1 .
Reply: inactive

###

Biological target: Progesterone receptor (Homo sapiens) (UniProt P06401)
Sequence (P06401 whole entry, looked up): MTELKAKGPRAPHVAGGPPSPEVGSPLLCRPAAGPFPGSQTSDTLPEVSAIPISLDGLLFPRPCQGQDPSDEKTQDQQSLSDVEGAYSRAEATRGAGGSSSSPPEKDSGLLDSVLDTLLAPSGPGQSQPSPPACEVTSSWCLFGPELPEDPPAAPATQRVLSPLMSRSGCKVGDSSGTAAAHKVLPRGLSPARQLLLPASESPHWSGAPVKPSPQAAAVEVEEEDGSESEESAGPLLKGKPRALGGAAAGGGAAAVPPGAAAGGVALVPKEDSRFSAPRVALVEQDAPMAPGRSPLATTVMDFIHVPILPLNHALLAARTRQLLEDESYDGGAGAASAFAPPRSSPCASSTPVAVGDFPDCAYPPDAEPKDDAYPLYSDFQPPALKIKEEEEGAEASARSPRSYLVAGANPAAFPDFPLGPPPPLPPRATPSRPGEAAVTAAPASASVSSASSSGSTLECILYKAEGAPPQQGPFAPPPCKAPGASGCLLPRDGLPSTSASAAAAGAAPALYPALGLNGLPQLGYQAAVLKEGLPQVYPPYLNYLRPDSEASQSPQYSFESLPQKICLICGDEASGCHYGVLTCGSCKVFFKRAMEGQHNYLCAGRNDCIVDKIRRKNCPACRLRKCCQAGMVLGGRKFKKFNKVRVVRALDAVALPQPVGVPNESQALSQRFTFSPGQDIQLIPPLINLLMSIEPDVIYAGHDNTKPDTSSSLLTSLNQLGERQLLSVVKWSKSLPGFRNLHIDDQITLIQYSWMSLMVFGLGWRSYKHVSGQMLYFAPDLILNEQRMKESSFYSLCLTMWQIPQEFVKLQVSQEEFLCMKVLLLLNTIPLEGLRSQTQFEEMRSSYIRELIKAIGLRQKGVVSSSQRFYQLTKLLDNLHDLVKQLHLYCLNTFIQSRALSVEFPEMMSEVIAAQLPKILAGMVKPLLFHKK
Test: qHTS assay to identify small molecule agonists of the progesterone receptor (PR) signaling pathway (AID 1346784); also: % is scaled to controls: 0 for no effect and ±100 for the full control effect; nearly all actives have a fitted effect of over 30% in size
Details: PR-UAS-bla HEK293T, beta-lactamase FRET ratio, 16 h; series mostly up to 92.4 µM
Results filed as inconclusive are left out. The source made the active and inactive calls. Calls come from the whole dose curve.
RECORDED METRIC: outcome

Check out these entries, answers already filled in.
- SMILES INPUT: "Cc1cc(C(=C2C=CC(=Nc3ccc(S(=O)(=O)O)cc3S(=O)(=O)O)C=C2)c2ccc(Nc3ccc(S(=O)(=O)O)cc3)cc2)ccc1N"
  outcome: "inactive"
- SMILES INPUT: "CC1=C(C=O)C(C)(C)CCC1"
  outcome: "inactive"
- SMILES INPUT: "CO[C@H]1O[C@H](CO)[C@@H](O)[C@H](O)[C@H]1O"
  outcome: "inactive"
- SMILES INPUT: "CN1CCCN=C1/C=C/c1cccs1"
  outcome: "inactive"
- SMILES INPUT: "COC(=O)c1cc(Cl)ccc1NS(=O)(=O)C(F)(F)F"
  outcome: "inactive"

Task item: Can you look up the measured outcome of CC(=O)Nc1ccccc1C for me?
Reply: inactive

###

Experiment: qHTS assay to identify small molecule agonists of the estrogen receptor alpha (ER-alpha) signaling pathway in the presence of an antagonist - cell viability counter screen (AID 1259386);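 also: cells exposed to compounds for 22 h at 37 °C before the viability read; % is scaled to controls: 0 for no effect and ±100 for the full control effect; nearly all actives have a fitted effect of over 30% in size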
Conditions: VM7Luc4E2 viability, CellTiter-Fluor fluorescence, 22 h; series mostly up to 92.4 µM
Records with an inconclusive call do not appear. Activity calls are given as the source filed them. Calls come from the whole dose curve; as a rule, active = well fitted cell-killing curve with a large enough effect in the repeat runs; inconclusive = weak or mixed curves, or effect the other way; inactive = no such curve, though single readings can be large or run the other way.
Tick one outcome: 1 (active), -1 (inactive)

Observe how each entry below is paired with its result.
- COMPOUND: "CCOC(=O)C(C)Oc1ccc(Oc2nc3ccc(Cl)cc3o2)cc1 (stereo not given)"
  CAT: -1
- COMPOUND: "O=C(O)c1cccc(O)c1"
  CAT: -1
- COMPOUND: "C=CC(C)(C)CC(=O)OC"
  CAT: -1
- COMPOUND: "COCCOC"
  CAT: -1
- COMPOUND: "C[C@@H]1C[C@H]2[C@@H]3CCC4=CC(=O)C=C[C@]4(C)[C@@]3(F)[C@@H](O)C[C@]2(C)[C@H]1C(=O)CO"
  CAT: -1
- COMPOUND: "OC(CCCN1CCCCC1)(c1ccccc1)c1ccccc1"
  CAT: -1
- COMPOUND: "CC(CCO)CCc1ccccc1 (stereo not given)"
  CAT: -1
- COMPOUND: "C1COCO1"
  CAT: -1

Continue with the next compound.
Task item: What did the test return for CN1Cc2cc(C(=O)N3CCC(C4CCNCC4)CC3)ccc2N[C@@H](CC(=O)O)C1=O ?
Reply: -1

###

Test: qHTS assay for small molecules that induce genotoxicity in human embryonic kidney cells expressing luciferase-tagged ATAD5 - cell viability (AID 651634); also: nearly all actives have a fitted effect of over 25% in size
Conditions: HEK293T ATAD5-luc cells viability, CellTiter-Fluor, 15.5 h; series mostly up to 83.3 µM
Results filed as inconclusive are left out. Active and inactive are the calls of the source. Calls come from the whole dose curve.
Outcome (select one): active, inactive

Task item: Tell me the assay call for CCOc1cc(N)c(Cl)cc1C(=O)NCC1CN(Cc2ccc(F)cc2)CCO1 (stereo not given) please.
Reply: inactive

Task item: What call does the record list for OC/C(Br)=C(\Br)CO ?
Reply: inactive

Task item: Hi, do you know how CCOC(=O)OCC came out in this test?
Reply: inactive

Task item: Please indicate how the test categorized Cc1ccc(/C=N/n2c(-c3ccccc3)csc2=S)cc1 .
Reply: inactive

Task item: What was the test verdict on O=C(C(=O)c1ccccc1)c1ccccc1 ?
Reply: inactive

Task item: # lookup: test call for CNC(=O)N(c1ccccc1)c1ccccc1
Reply: inactive

Task item: Called result for NC(=O)Nc1ccc(Cl)c(Cl)c1
Reply: inactive

Task item: Status in this test for Oc1cc(O)c(Cl)cc1Cl ?
Reply: inactive

Task item: Hello, I am checking results. What call was entered for COc1cc2[nH]c(=O)[nH]c(=O)c2cc1OC ?
Reply: inactive

Task item: Any idea what this test logged for CCCCN(CCCC)CCCOC(=O)c1ccc(N)cc1 ?
Reply: inactive

Task item: Given COc1cc2c(cc1OC)-c1cc(=Nc3c(C)cc(C)cc3C)n(C)c(=O)n1CC2 , state the outcome it received in this test.
Reply: active

Reference for the values: PubChem BioAssay (Tox21)
